test system: Staphylococcus aureus; assay: Agar well inhibition zone test against bacteria, Staphylococcus aureus (Table III); settings: quantity per well giving inhibition zone (500, 50, 5 μg tested); nutrient agar, 37°, 24 hours
Recorded measurements of Inhibition Area at μg, Staph. aureus, one per entry
Numbers only; they are read as µg.

Data request, read-out Inhibition Area at μg, Staph. aureus, for OC(CCN1CCN(CCN2CCCCC2)CC1)(Cc1ccccc1)Cc1ccccc1 500

Data request, read-out Inhibition Area at μg, Staph. aureus, for CC(C(=Cc1ccccc1)Cc1ccccc1)N1CCN(CCN(C(C)C)C(C)C)CC1 (centres unmarked) 50

Data request, read-out Inhibition Area at μg, Staph. aureus, for CC(N1CCN(CCN(C)Cc2ccccc2)CC1)C(O)(Cc1ccccc1)Cc1ccccc1 (centres unmarked) 50

Data request, read-out Inhibition Area at μg, Staph. aureus, for CCN(CC)CCN1CCN(C(C)C(O)(Cc2ccccc2)Cc2ccccc2)CC1 (centres unmarked) 500

* * *

Assay: Solubility in water
Assay type: physicochemical
Settings: hydrochlorides or oxalates, read-out: solubilities (in water)
Protocol: The following list contains examples of those compounds which are made according to the methods disclosed. (The individual compounds are identified by elementary analyses and infrared spectra, by ultra-violet or nuclear resonance spectra, if necessary.) Individual melting points and solubilities (in water) are also given as is the method by which each compound is prepared. […]
Recorded measurements of solubility, one per entry
Numbers only; they are read as mg/mL.

Data request, read-out solubility, for CCCCCCCCN1CCN(CCCCCCN2CCN(C(C)C(=Cc3ccccc3)Cc3ccccc3)CC2)CC1 (stereo not drawn) [LXII] 25

Data request, read-out solubility, for CN1CCN(CCCCCCN2CCN(CCC(O)(Cc3ccccc3)Cc3ccccc3)CC2)CC1 [LXI] 100

Data request, read-out solubility, for CC(N1CCN(CCN(C)C)CC1)C(O)(Cc1ccccc1)Cc1ccccc1 (stereo not drawn) [Compound I] 100

Data request, read-out solubility, for CC(N1CCN(CCN2CCN(C)CC2)CC1)C(O)(Cc1ccccc1)Cc1ccccc1 (stereo not drawn) [X] 100

Next compound, solubility to be filled in.
Data request, read-out solubility, for CC(N1CCN(CCN(C)c2ccccc2)CC1)C(O)(Cc1ccccc1)Cc1ccccc1 (stereo not drawn) [XVIII] 10

* * *

system: C. albicans; assay: Minimum inhibitory concentration for fungi in presence of serum, C. albicans (Table VI); type: cell-based; conditions: Candida albicans; Sabouraud nutrient broth + 10% bovine serum, 28°C, 48 hours
result-type: MIC (µg/mL)
Numbers only; they are read as µg/mL.

Data request, read-out MIC, for CC(C(=Cc1ccccc1)Cc1ccccc1)N1CCN(CCN(C(C)C)C(C)C)CC1 (stereo not drawn) 256

Next:
Data request, read-out MIC, for CC(N1CCNCC1)C(O)(Cc1ccccc1)Cc1ccccc1 (stereo not drawn) 512

Data request, read-out MIC, for CC1CCN(CCN2CCN(C(C)C(O)(Cc3ccccc3)Cc3ccccc3)CC2)CC1 (stereo not drawn) 32

Data request, read-out MIC, for CCCCCCCCNCCCCCCN1CCN(C(C)C(=Cc2ccccc2)Cc2ccccc2)CC1 (stereo not drawn) 64

Data request, read-out MIC, for CC(N1CCN(CCN2CCN(Cc3ccccc3)CC2)CC1)C(O)(Cc1ccccc1)Cc1ccccc1 (stereo not drawn) 256

Data request, read-out MIC, for CC(N1CCN(CCN(C)Cc2ccccc2)CC1)C(O)(Cc1ccccc1)Cc1ccccc1 (stereo not drawn) 512

Data request, read-out MIC, for CC1CCN(CCN2CCN(C(C)C(=Cc3ccccc3)Cc3ccccc3)CC2)CC1 (stereo not drawn) 32

Data request, read-out MIC, for CC(c1ccccc1)N1CCN(CCN2CCN(C(C)C(O)(Cc3ccccc3)Cc3ccccc3)CC2)CC1 (stereo not drawn) 513

* * *

Experiment: Solubility in water
Assay type: physicochemical
Details: hydrochlorides or oxalates, read-out: solubilities (in water)
Procedure: The following list contains examples of those compounds which are made according to the methods disclosed. (The individual compounds are identified by elementary analyses and infrared spectra, by ultra-violet or nuclear resonance spectra, if necessary.) Individual melting points and solubilities (in water) are also given as is the method by which each compound is prepared. […]
Recorded measurements of solubility, one per entry
Numbers only; they are read as mg/mL.

Past entries and their recorded results:
Data request, read-out solubility, for CCN(CC)CCN1CCN(C(C)C(=Cc2ccccc2)Cc2ccccc2)CC1 (centres unmarked) 100

Data request, read-out solubility, for CC(N1CCN(CCN2CCN(Cc3ccccc3)CC2)CC1)C(O)(Cc1ccccc1)Cc1ccccc1 (centres unmarked) 100

Data request, read-out solubility, for CC(C(=Cc1ccccc1Cl)Cc1ccccc1Cl)N1CCN(CCN2CCN(C)CC2)CC1 (centres unmarked) 100

Data request, read-out solubility, for CC(C(=Cc1ccccc1)Cc1ccccc1)N1CCN(CCN(C)C)CC1 (centres unmarked) 100

Next molecule, solubility to be filled in.
Data request, read-out solubility, for CN1CCN(CCC(O)(Cc2ccccc2)Cc2ccccc2)CC1 10

* * *

Recorded measurements of solubility, one per entry
assay: Solubility in water; format: physicochemical; conditions: hydrochlorides or oxalates, read-out: solubilities (in water)
Numbers only; they are read as mg/mL.

Past entries and their recorded results:
Data request, read-out solubility, for CC(C(=Cc1ccc(Cl)cc1)Cc1ccc(Cl)cc1)N1CCN(CCN2CCN(C)CC2)CC1 (stereo not drawn) 100

Data request, read-out solubility, for CC(N1CCN(CCCN2CCCCC2)CC1)C(O)(Cc1ccccc1)Cc1ccccc1 (stereo not drawn) 100

Data request, read-out solubility, for CC(N1CCN(Cc2cccnc2)CC1)C(O)(Cc1ccccc1)Cc1ccccc1 (stereo not drawn) 50

Data request, read-out solubility, for Cc1cccc(CN2CCN(C(C)C(O)(Cc3ccccc3)Cc3ccccc3)CC2)c1 (stereo not drawn) 10

Data request, read-out solubility, for CC(N1CCN(CCO)CC1)C(O)(Cc1ccc(Cl)cc1)Cc1ccc(Cl)cc1 (stereo not drawn) 100

Next:
Data request, read-out solubility, for CC(N1CCN(CCCl)CC1)C(O)(Cc1ccccc1)Cc1ccccc1 (stereo not drawn) 25

Data request, read-out solubility, for OC(CCN1CCN(CCN2CCCCC2)CC1)(Cc1ccccc1)Cc1ccccc1 100

Data request, read-out solubility, for CC(N1CCN(CCN2CCN(c3ccccc3)CC2)CC1)C(O)(Cc1ccccc1)Cc1ccccc1 (stereo not drawn) 50

* * *

Recorded measurements of MIC, one per entry
tested on: C. albicans; test: Minimum inhibitory concentration for fungi, tube dilution, C. albicans (Table IV); settings: Candida albicans, 48 h, read-out: Minimum Inhibitory Concentration, C. albicans

Past entries and their recorded results:
Data request, read-out MIC, for CC(N1CCN(CCCCCCN2CCCCC2)CC1)C(O)(Cc1ccccc1)Cc1ccccc1 (stereo not shown) 64 µg/mL

Data request, read-out MIC, for CC1CCCN(CCN2CCN(C(C)C(O)(Cc3ccccc3)Cc3ccccc3)CC2)C1 (stereo not shown) 16 µg/mL

Data request, read-out MIC, for CC(N1CCN(CCN(C)Cc2ccccc2)CC1)C(O)(Cc1ccccc1)Cc1ccccc1 (stereo not shown) 16 µg/mL

Data request, read-out MIC, for CCC(N1CCN(C)CC1)C(O)(Cc1ccccc1)Cc1ccccc1 (stereo not shown) 256 µg/mL

Data request, read-out MIC, for CC(N1CCN(CCN2CCN(c3ccccc3)CC2)CC1)C(O)(Cc1ccccc1)Cc1ccccc1 (stereo not shown) > 1020 µg/mL

Next:
Data request, read-out MIC, for CC(C(=Cc1ccccc1)Cc1ccccc1)N1CCN(CCCl)CC1 (stereo not shown) > 1020 µg/mL

Data request, read-out MIC, for CC(N1CCN(CCN2CCCC2)CC1)C(O)(Cc1ccccc1)Cc1ccccc1 (stereo not shown) 32 µg/mL

Data request, read-out MIC, for CCCCCCCCN1CCN(CCCCCCN2CCN(C(C)C(=Cc3ccccc3)Cc3ccccc3)CC2)CC1 (stereo not shown) 2 µg/mL

Data request, read-out MIC, for CCN(CC)CCN1CCN(C(C)C(=Cc2ccccc2)Cc2ccccc2)CC1 (stereo not shown) 256 µg/mL

Data request, read-out MIC, for CNCCN1CCN(C(C)C(=Cc2ccccc2)Cc2ccccc2)CC1 (stereo not shown) 64 µg/mL

Data request, read-out MIC, for CC(N1CCN(CCCN2CCCCC2)CC1)C(O)(Cc1ccccc1)Cc1ccccc1 (stereo not shown) 16 µg/mL

Data request, read-out MIC, for Cc1cccc(CC(O)(Cc2cccc(C)c2)C(C)N2CCN(CCN3CCCCC3)CC2)c1 (stereo not shown) 8 µg/mL

Data request, read-out MIC, for CC(N1CCN(CCCl)CC1)C(O)(Cc1ccccc1)Cc1ccccc1 (stereo not shown) > 1020 µg/mL

* * *

test system: Staphylococcus aureus; assay: Agar well inhibition zone test against bacteria, Staphylococcus aureus (Table III); conditions: quantity per well giving inhibition zone (500, 50, 5 μg tested); nutrient agar, 37°, 24 hours
result-type: Inhibition Area at μg, Staph. aureus (µg)
Numbers only; they are read as µg.

Data request, read-out Inhibition Area at μg, Staph. aureus, for CC(C(=Cc1ccccc1)Cc1ccccc1)N1CCN(CCN2CCN(Cc3ccccc3)CC2)CC1 (stereo not drawn) 5

Next:
Data request, read-out Inhibition Area at μg, Staph. aureus, for CC(N1CCN(CCN(C)C)CC1)C(O)(Cc1ccccc1)Cc1ccccc1 (stereo not drawn) 500

Data request, read-out Inhibition Area at μg, Staph. aureus, for CC(C(=Cc1ccccc1)Cc1ccccc1)N1CCN(CCCl)CC1 (stereo not drawn) 500

Data request, read-out Inhibition Area at μg, Staph. aureus, for CC(c1ccccc1)N1CCN(CCN2CCN(C(C)C(O)(Cc3ccccc3)Cc3ccccc3)CC2)CC1 (stereo not drawn) 5

Data request, read-out Inhibition Area at μg, Staph. aureus, for Clc1ccc(C=C(CCN2CCN(CCN3CCCCC3)CC2)Cc2ccc(Cl)cc2)cc1 5

Data request, read-out Inhibition Area at μg, Staph. aureus, for Cc1cccc(CC(O)(Cc2cccc(C)c2)C(C)N2CCN(C)CC2)c1 (stereo not drawn) 50

Data request, read-out Inhibition Area at μg, Staph. aureus, for CC(N1CCN(CCN2CCCCC2)CC1)C(O)(Cc1ccccc1)Cc1ccccc1 (stereo not drawn) 500

Data request, read-out Inhibition Area at μg, Staph. aureus, for CC(C(=Cc1ccccc1)Cc1ccccc1)N1CCN(CCN(C)C)CC1 (stereo not drawn) 50
